Consider the following binders and their measured koff readings.
# study_system: T1, CTNI quality control recombinant protein (PK2-CTNI-1, 170120, produced by the applicant) (human, UniProt P19429 2-210, limits assumed)
# T1 construct: also called cardiac troponin I
# T1 sequence (P19429 2-210 limits assumed): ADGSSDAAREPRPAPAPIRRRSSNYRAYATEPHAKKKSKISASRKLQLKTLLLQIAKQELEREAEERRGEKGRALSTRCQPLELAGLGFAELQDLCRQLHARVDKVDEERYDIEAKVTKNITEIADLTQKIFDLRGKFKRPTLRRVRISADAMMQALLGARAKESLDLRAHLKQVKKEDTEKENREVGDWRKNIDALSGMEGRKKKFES
# protocol: AMC sensor kinetics, antibody captured, cTnI analyte
// return numeric value only (unit: s⁻¹, not printed)

Known koff results, listed for orientation:
Mutation 1-15 (antibody, V domains shown, built as for Mutation 1) VH: EVQLQQSGAELVKPGASVKLSCTASGFNIKDYYMHWMKQRTEQGLDWIGRIDPEDGETRYAPEFQGKATITADTSSNTAYLQLSTLTSEDTAVYYCARYYSSYVPFVYWGQGTLVTASA VL: DVVMTQTPLSLSVSLGDQASISCRSSQSIIYSNRHTYLHWYLQKPGQSPKLLIFQVSNRFSGVPDRFSGSGSGTDFTLKINRVEAEDLGVYFCSQSTHIPYTFGSGTKLEIKR    0.000245
Mutation 1-49 (antibody, V domains shown, built as for Mutation 1) VH: EVQLQQSGAELVKPGASVKLSCTASGFNIKDYYMHWMKQRTEQGLDWIGRIDPEDAETRYAPEFQGKATITADTSSNTAYLQLSTLTSEDTAVYYCARYYSSYLPFVYWGQGTLVTASA VL: DVVMTQTPLSLSVSLGDQASISCRSSQSILYSNRHTYLHWYLQKPGQSPKLLIFQLSNRFSGVPDRFSGSGSGTDFTLKINRVEAEDLGVYFCSQSTHIPYTFGSGTKLEIKR    0.000298

Here is the next item to consider.
Query (binder): Mutation 1-48 (antibody, V domains shown, built as for Mutation 1) VH: EVQLQQSGAELVKPGASVKLSCTASGFNIKDYFMHWMKQRTEQGLDWIGRIDPEDGETRYAPEFQGKATITADTSSNTAYLQLSTLTSEDTAVYYCARYYSSYIPFVYWGQGTLVTASA VL: DVVMTQTPLSLSVSLGDQASISCRSSQSIIYSNRHTYLHWYLQKPGQSPKLLIFQISNRFSGVPDRFSGSGSGTDFTLKINRVEAEDLGVYFCSQSTHLPYTFGSGTKLEIKR ; field requested: koff
0.00065

// provenance: patent US20210340231A1
